Assay: in vitro
Conditions: pooled liver microsomes 0.5 mg/mL protein, test compound 1 μM, NADPH 1 mM, 37° C., 0-45 min, LC-MS/MS
Structures can show the parent of a compound that is named as a salt.
Param label: returns TRUE when CLint < 50 μL/min/mg protein, returns FALSE otherwise, including exact equality.

Answered cases to consult:
For this compound, is CLint lower than 50 μL/min/mg protein? [2H]C([2H])([2H])C([2H])([2H])N(C(=O)[C@@H]1C=C2c3cccc4[nH]c(Br)c(c34)C[C@H]2N(C)C1)C([2H])([2H])C([2H])([2H])[2H]
TRUE

Hello, I'm reviewing records and need to know if CLint of [2H]c1[nH]c2c([2H])c([2H])c([2H])c3c2c1C[C@@H]1C3=C[C@@H](C(=O)N(CC)CC)CN1C is below 50 μL/min/mg protein. Could you check?
TRUE

Is CLint of [2H]C([2H])([2H])N1C[C@H](C(=O)N(C([2H])([2H])C([2H])([2H])[2H])C([2H])([2H])C([2H])([2H])[2H])C=C2c3cccc4[nH]c(Br)c(c34)C[C@H]21 strictly below 50 μL/min/mg protein?
TRUE

Hello, is CLint of the following compound strictly smaller than 50 μL/min/mg protein? [2H]C([2H])([2H])C([2H])([2H])N(C(=O)[C@@H]1C=C2c3cccc4[nH]cc(c34)C[C@H]2N(C)C1)C([2H])([2H])C([2H])([2H])[2H]
TRUE

Others:
Quick check: CLint of CCN(CC)C(=O)[C@@H]1C=C2c3cccc4[nH]c(Br)c(c34)C[C@H]2N(C)C1 [Compound 2-Br-LSD, 2-Bromolysergic acid diethylamide, reference compound] under 50 μL/min/mg protein?
FALSE

Determine if [2H]c1c([2H])c2c3c(c(Br)[nH]c3c1[2H])C[C@@H]1C2=C[C@@H](C(=O)N(CC)CC)CN1C [Compound 1, formate] shows CLint strictly lower than 50 μL/min/mg protein.
FALSE

Item [2H]c1[nH]c2cccc3c2c1C[C@@H]1C3=C[C@@H](C(=O)N(CC)CC)CN1C : CLint beneath 50 μL/min/mg protein, strictly?
TRUE
